Target: Leukotriene A-4 hydrolase (Homo sapiens)
Test: Inhibition of N-terminal (His)6 and Xpress-tagged LTA4H (unknown origin) expressed in Escherichia coli BL21(DE3) cells assessed as reduction in aminopeptidase activity by measuring p-nitroanilide release using L-arginine-p-nitroanilide incubated for 10 mins by UV plate reader based assay
Quantity measured: pIC50
The quantity pIC50 is defined as the negative base-10 logarithm of the molar concentration.

### Prompt Entry under review: COc1ccc(Cc2ccc(-c3csc(N)n3)cc2)cc1 . Reported pIC50?
### Response 4.86

====

Reported K values for the following molecules.
Molecular target: UniProt:P09960
Assay: Activation of N-terminal (His)6 and Xpress-tagged LTA4H (unknown origin) expressed in Escherichia coli BL21(DE3) cells assessed as increase in aminopeptidase activity by measuring reciprocal allosteric coupling constant for hyperbolic mixed predominantly catalytic activation using L-Alanine-p-nitroanilide incubated for 10 mins by p-nitroanilide release detection based UV plate reader based assay
In your answer, state the number alone without any accompanying words.

Please review the entries below; each comes with its answer.
• COc1ccc(Cc2ccc(-c3csc(N)n3)cc2)cc1 = 4.34
• COc1ccc(Cc2ccccc2)cc1 = 2.66
• Nc1nc(-c2ccc(Cc3ccccc3)cc2)cs1 = 0.82
• Nc1nc(-c2ccc(Cc3ccc(C(F)(F)F)cc3)cc2)cs1 = 9.51

Lab note: next molecule to report on.
### Prompt Entry under review: Cc1ccc(Cc2ccc(-c3csc(N)n3)cc2)cc1 . Reported K?
### Response 1.64

====

Reported log10(K) values for the following compounds.
Target: Leukotriene A-4 hydrolase (Homo sapiens) (UniProt P09960)
Assay: Activation of N-terminal (His)6 and Xpress-tagged LTA4H (unknown origin) expressed in Escherichia coli BL21(DE3) cells assessed as increase in aminopeptidase activity by measuring dissociation constant (KX) for hyperbolic mixed predominantly catalytic activation using L-Alanine-p-nitroanilide incubated for 10 mins by p-nitroanilide release detection based UV plate reader based assay
Hello, just confirming the data are log10 of K with units of µM.

* Nc1nc(-c2ccc(Cc3ccccc3)cc2)cs1 | 0.13
* Cc1ccc(Cc2ccc(-c3csc(N)n3)cc2)cc1 | -1.00
* COc1ccc(Cc2ccc(-c3csc(N)n3)cc2)cc1 | -1.30
* Nc1nc(-c2ccc(Cc3ccc(C(F)(F)F)cc3)cc2)cs1 | 0.98

Lab note: next compound to report on.
### Prompt Entry under review: COc1ccc(Cc2ccccc2)cc1 . Reported log10(K)?
### Response -0.74

====

Molecular target: Leukotriene A-4 hydrolase (Homo sapiens) (UniProt P09960)
Sequence (whole entry): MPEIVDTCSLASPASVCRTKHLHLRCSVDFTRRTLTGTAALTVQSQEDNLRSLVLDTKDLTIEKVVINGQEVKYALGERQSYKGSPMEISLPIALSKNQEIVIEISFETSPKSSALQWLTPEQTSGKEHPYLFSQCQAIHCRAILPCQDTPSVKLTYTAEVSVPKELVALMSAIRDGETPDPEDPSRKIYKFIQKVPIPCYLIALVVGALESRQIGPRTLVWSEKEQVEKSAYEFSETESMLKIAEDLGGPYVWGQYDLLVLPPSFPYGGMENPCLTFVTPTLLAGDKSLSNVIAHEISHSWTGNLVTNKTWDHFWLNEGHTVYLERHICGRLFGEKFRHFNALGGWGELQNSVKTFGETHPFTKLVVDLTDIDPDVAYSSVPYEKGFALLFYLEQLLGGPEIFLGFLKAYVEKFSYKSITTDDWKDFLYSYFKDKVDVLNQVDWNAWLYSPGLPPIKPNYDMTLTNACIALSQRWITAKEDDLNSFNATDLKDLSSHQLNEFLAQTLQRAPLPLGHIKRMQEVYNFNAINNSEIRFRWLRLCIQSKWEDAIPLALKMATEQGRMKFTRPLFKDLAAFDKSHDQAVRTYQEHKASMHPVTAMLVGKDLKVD
Assay: Activation of N-terminal (His)6 and Xpress-tagged LTA4H (unknown origin) expressed in Escherichia coli BL21(DE3) cells assessed as increase in aminopeptidase activity by measuring factor by which activator affects catalytic constant for hyperbolic mixed predominantly catalytic activation using L-Alanine-p-nitroanilide incubated for 10 mins by p-nitroanilide release detection based UV plate reader based assay
Think of 20 as a floor: if fold change (FC) stands on it or above, it is Met; beneath it, Not met.

* Nc1nc(-c2ccc(Cc3ccccc3)cc2)cs1 | Met
* COc1ccc(Cc2ccccc2)cc1 | Met
* COc1ccc(Cc2ccc(-c3csc(N)n3)cc2)cc1 | Met
* Cc1ccc(Cc2ccc(-c3csc(N)n3)cc2)cc1 | Not met

Now consider a different compound.
### Prompt Textbook exercise: given the entry Nc1nc(-c2ccc(Cc3ccc(C(F)(F)F)cc3)cc2)cs1 , state whether its fold change (FC) is greater than or equal to 20.
### Response Met
